# System: 349418-098-R-PDC complex spheroid viability;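 further: spheroids exposed to compound for seven days before viability readout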
# test-details: Anticancer human tumor 349418-098-R-PDC patient-derived lung adenocarcinoma cell line growth inhibition [RAS]
# condition-notes: second compound 1 µM; first compound 0.01 µM; active compounds read low
endpoint-name: viability, T/C (%)
Give a bare numeral; the unit % is implied.

Before answering, review these 7 worked examples.
compound="CCN1CCN(Cc2ccc(Nc3ncc(F)c(-c4cc(F)c5nc(C)n(C(C)C)c5c4)n3)nc2)CC1 + C=CC(=O)N1CCN(c2nc(OCC3CCCN3C)nc3c(F)c(-c4nc(N)cc(C)c4C(F)(F)F)c(Cl)cc23)C(C)C1" val=49.1
compound="CCN1CCN(Cc2ccc(Nc3ncc(F)c(-c4cc(F)c5nc(C)n(C(C)C)c5c4)n3)nc2)CC1 + C#Cc1c(F)ccc2cc(O)cc(-c3ncc4c(N5CC6CCC(C5)N6)nc(OCC56CCCN5CC(F)C6)nc4c3F)c12" val=49.6
compound="CC(C)n1nc(-c2ccc3oc(N)nc3c2)c2c(N)ncnc21 + C#Cc1c(F)ccc2cc(O)cc(-c3ncc4c(N5CC6CCC(C5)N6)nc(OCC56CCCN5CC(F)C6)nc4c3F)c12" val=29.2
compound="O=C(c1ccc(F)c(F)c1Nc1ccc(I)cc1F)N1CC(O)([C@@H]2CCCCN2)C1 + C#Cc1c(F)ccc2cc(O)cc(-c3ncc4c(N5CC6CCC(C5)N6)nc(OCC56CCCN5CC(F)C6)nc4c3F)c12" val=31.1
compound="C=CC(=O)N1CCN(c2nc(OCC3CCCN3C)nc3c(F)c(-c4nc(N)cc(C)c4C(F)(F)F)c(Cl)cc23)C(C)C1 (stereo not drawn) + C#Cc1c(F)ccc2cc(O)cc(-c3ncc4c(N5CC6CCC(C5)N6)nc(OCC56CCCN5CC(F)C6)nc4c3F)c12" val=114
compound="CC(C)n1nc(-c2ccc3oc(N)nc3c2)c2c(N)ncnc21 + C=CC(=O)N1CCN(c2nc(OCC3CCCN3C)nc3c(F)c(-c4nc(N)cc(C)c4C(F)(F)F)c(Cl)cc23)C(C)C1" val=15.2
compound="C=CC(=O)Nc1cc(Nc2nccc(-c3cn(C)c4ccccc34)n2)c(OC)cc1N(C)CCN(C)C + C#Cc1c(F)ccc2cc(O)cc(-c3ncc4c(N5CC6CCC(C5)N6)nc(OCC56CCCN5CC(F)C6)nc4c3F)c12" val=121

Read the next record carefully.
Result for O=C(c1ccc(F)c(F)c1Nc1ccc(I)cc1F)N1CC(O)([C@@H]2CCCCN2)C1 + C=CC(=O)N1CCN(c2nc(OCC3CCCN3C)nc3c(F)c(-c4nc(N)cc(C)c4C(F)(F)F)c(Cl)cc23)C(C)C1 , tested on 349418-098-R-PDC complex spheroid viability, viability, T/C: 38.8
